Each recorded value in this set is attributed to patent US20060241051A1.

- TARGET: T1, human OT7T175 (metastin receptor) (human, UniProt Q969F8 1-398)
- T1 construct: expressed on CHO cells (hOT7T175-expressed CHO cells; hOT7T175/CHO); also called hOT7T175; h0T7T175
- T1 sequence (Q969F8 whole entry L364H): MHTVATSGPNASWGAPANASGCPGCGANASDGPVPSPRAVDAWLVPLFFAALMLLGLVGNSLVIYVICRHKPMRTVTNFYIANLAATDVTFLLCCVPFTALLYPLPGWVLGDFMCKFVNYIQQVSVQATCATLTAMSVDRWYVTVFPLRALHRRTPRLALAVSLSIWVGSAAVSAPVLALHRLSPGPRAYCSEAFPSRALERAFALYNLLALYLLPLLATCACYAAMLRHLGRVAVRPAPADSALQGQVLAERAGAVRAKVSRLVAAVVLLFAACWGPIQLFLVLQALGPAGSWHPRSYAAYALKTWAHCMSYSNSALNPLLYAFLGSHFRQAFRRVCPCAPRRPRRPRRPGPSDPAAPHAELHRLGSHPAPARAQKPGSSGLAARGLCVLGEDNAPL
- TEST_DETAILS: FMAT competition with Cy-5-labeled metastin (40-54), hOT7T175-expressed CHO cells
Square brackets hold non-standard residues; d marks the D form. Ends that are not written are not given here. Arg(Me) = CNC(=N)NCCC[C@H](N)C(=O)O; azaGly = NNC(=O)O
TEST_READOUT: IC50 (nM)
State just the number; it will be interpreted in nM.

# query: IC50 of entry NWNSFGLRF-NH2 (also called human metastin 9 (46-54)) [Compound No. 4: des(1)-MS10]
260

Also [dY]NWNTF[azaGly]L[Arg(Me)]F-NH2 [Compound No. 297: [D-Tyr1,Thr5,AzaGly7,Arg(Me)9]MS10] , if possible.
0.93
